- assay-system: human TLR9 (Homo sapiens)
- Construct: host or cells: HEK-Blue cells
- Sequence (Q9NR96 26-1032): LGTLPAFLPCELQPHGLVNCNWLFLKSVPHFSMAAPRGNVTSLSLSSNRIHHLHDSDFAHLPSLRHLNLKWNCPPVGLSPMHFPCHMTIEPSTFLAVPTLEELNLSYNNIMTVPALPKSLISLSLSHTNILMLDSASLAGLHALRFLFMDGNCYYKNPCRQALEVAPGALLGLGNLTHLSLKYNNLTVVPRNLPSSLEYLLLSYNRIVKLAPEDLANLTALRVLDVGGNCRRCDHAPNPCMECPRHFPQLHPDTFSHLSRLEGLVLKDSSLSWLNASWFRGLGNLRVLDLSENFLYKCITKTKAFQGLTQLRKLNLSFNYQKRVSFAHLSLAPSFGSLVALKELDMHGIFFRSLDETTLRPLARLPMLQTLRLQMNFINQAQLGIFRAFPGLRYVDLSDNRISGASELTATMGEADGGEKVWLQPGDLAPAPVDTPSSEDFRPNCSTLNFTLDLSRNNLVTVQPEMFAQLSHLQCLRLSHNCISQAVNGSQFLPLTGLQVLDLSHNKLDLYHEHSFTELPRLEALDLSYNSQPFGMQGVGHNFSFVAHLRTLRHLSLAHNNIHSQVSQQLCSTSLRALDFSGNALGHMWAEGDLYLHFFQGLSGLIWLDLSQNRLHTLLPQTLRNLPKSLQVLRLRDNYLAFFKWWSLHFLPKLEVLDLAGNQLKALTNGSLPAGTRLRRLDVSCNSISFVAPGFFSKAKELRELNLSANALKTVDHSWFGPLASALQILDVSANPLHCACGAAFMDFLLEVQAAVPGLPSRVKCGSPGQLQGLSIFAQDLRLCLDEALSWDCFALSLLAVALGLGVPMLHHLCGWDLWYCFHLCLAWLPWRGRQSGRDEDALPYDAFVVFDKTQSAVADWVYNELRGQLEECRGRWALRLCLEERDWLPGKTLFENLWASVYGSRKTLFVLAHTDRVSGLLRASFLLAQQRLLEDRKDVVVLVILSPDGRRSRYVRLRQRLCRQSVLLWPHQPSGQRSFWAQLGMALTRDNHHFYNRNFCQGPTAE
- measurement-protocol: TLR9 inhibition reporter assay (HEK-Blue cells, SEAP reporter, ODN2006 stimulation)
- Type: cell-based
- condition-set: HEK-Blue cells overexpressing human TLR9, SEAP reporter, ODN2006 5 nM
Below is a list of entries, each paired with its recorded IC50 value.
The reply should consist of the numeric value with the unit placed after it.

Cc1c(-c2[nH]c3ccc(C4CCC(N(C)C5COC5)CC4)cc3c2C(C)C)cn2cnnc2c1C (stereo not shown) [Example 528] = 5.6 µM
COc1cc(-c2[nH]c3ccc(C4CCC(N(C)C(C)C)CC4)cc3c2C(C)C)cn2ncnc12 (single isomer, unassigned) [Example 7] = 2 µM
Cc1c(-c2[nH]c3ccc(C4CCC(N5CC(F)(F)C5)CC4)cc3c2C(C)C)cn2ncnc2c1C (stereo not shown) [Example 24] = 24.9 µM

Turning now to a further record.
stdin: Quick one: IC50 of CC(C)c1c(-c2ccnc3[nH]ncc23)[nH]c2ccc(C3CCC(Oc4ccncc4)CC3)cc12 (stereo not shown) [Example 504] ?
stdout: 5.01 µM

====

- assay-system: human TLR7 (Homo sapiens)
- Sequence (Q9NYK1 27-1049): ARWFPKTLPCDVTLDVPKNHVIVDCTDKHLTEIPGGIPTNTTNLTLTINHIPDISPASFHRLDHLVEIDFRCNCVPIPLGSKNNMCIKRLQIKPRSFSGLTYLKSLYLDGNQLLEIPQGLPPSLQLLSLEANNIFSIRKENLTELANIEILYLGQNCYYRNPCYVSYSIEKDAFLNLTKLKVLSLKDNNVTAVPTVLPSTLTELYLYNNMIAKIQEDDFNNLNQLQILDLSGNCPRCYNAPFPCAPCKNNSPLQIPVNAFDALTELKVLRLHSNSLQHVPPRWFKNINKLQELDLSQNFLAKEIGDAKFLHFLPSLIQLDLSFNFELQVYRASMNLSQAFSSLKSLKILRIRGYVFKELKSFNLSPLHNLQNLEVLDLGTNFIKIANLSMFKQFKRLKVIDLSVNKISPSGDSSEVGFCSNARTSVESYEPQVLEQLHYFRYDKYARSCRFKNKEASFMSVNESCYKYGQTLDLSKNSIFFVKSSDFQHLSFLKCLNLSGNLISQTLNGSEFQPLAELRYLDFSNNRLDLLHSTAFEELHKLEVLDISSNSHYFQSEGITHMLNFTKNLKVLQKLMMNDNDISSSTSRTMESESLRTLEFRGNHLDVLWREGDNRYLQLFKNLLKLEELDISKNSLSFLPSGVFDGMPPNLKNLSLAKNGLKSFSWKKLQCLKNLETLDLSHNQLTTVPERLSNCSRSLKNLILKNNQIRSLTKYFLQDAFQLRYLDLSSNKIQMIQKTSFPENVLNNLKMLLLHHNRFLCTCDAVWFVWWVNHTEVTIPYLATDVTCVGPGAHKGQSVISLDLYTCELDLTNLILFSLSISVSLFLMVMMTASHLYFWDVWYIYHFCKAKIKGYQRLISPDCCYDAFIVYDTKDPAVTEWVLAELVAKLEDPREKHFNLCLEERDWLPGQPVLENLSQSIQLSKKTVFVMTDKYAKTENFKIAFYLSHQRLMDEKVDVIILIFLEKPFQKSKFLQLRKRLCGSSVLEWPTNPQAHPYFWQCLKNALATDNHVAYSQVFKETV
- measurement-protocol: TLR7 inhibition reporter assay (HEK-Blue cells, SEAP reporter, gardiquimod stimulation)
- condition-set: HEK-Blue cells overexpressing human TLR7, SEAP reporter, gardiquimod 7.5 μM
readout-name: pIC50
The meaning of pIC50 here: minus log10 of the concentration in molar units.

Consider the following illustrative entries.
COc1ccc(-c2[nH]c3ccc(C4CCCN(C(=O)CN(C)C)C4)cc3c2C(C)C)cc1OC (stereo not drawn) [Example 195] = 7.70
Cc1c(-c2[nH]c3ccc(C4CN(C5COC5)C4)cc3c2C(C)C)cn2ncnc2c1C [Example 544] = 8.30
COc1cc(-c2[nH]c3ccc(C4CCC(NC(C)=O)CC4)cc3c2C(C)C)cn2ncnc12 (single isomer, unassigned) [Example 115] = 9.00
COc1cc(-c2[nH]c3ccc(C4CCCN(C(=O)CN(C)C)C4)cc3c2C(C)C)cn2ncnc12 (stereo not drawn) [Example 192] = 9.31
CC(C)c1c(-c2ccnc3[nH]ncc23)[nH]c2ccc(C(C)C3CCNCC3)cc12 (stereo not drawn) [Example 423] = 7.47

stdin: Field: pIC50 (human TLR7 (Homo sapiens)). Entry: Cc1cc(-c2[nH]c3ccc(C4CN(CC(C)(C)O)CCO4)cc3c2C(C)C)cc(C)n1 (stereo not drawn) [Example 358]
stdout: 7.04

stdin: Now try Cc1c(-c2[nH]c3ccc(C4CCC(N(C)C)CC4)cc3c2C(C)C)cn(C)c(=O)c1C (stereo not drawn) [Example 475] .
stdout: 7.59

stdin: Note, next up: COCCC(=O)N1CCCC(c2ccc3[nH]c(-c4cc(C)nc(C)c4)c(C(C)C)c3c2)C1 (stereo not drawn) [Example 207]
stdout: 7.62

stdin: Again, but for COc1cc(-c2[nH]c3ccc(C4CN(C5COC5)C4)cc3c2C(C)C)cn2ncnc12 [Example 274]
stdout: 9.00

stdin: Next compound up: Cc1c(-c2[nH]c3ccc(C4CCC(N(C)C)CC4)cc3c2C(C)C)cn(C)c(=O)c1C (stereo not drawn) [Example 476]
stdout: 8.52

stdin: Similarly, COc1cc(-c2[nH]c3ccc(C4CCC(N5CC[C@H](N(C)C)C5)CC4)cc3c2C(C)C)cn2ncnc12 (stereo partly drawn) [Example 33] ?
stdout: 8.70

stdin: Repeat for the following compound: COCCN(C)C1CCC(c2ccc3[nH]c(-c4cn5ncnc5c(C)c4C)c(C(C)C)c3c2)CC1 (single isomer, unassigned) [Example 153]
stdout: 9.30
